# Tested on: CCRIS mutagenicity, Ames/micronucleus/aberration tests
# Protocol notes: CCRIS mutagenicity studies
# Condition: Test System: AMES SALMONELLA TYPHIMURIUM; Strain/Indicator: TA98; Metabolic Activation: RAT, LIVER, S-9, PHENOBARBITAL; Method: STANDARD PLATE
Active and inactive are the calls of the source. How the calls were made is not given here.
Measurement type: mutagenic call

Solved cases below.
Compound	mutagenic call
Cn1c2ccccc2c(=O)c2c(O)cc3c(c21)CC(C(C)(O)CCl)O3 (stereo not drawn)	active; positive
O=[N+]([O-])c1c2ccccc2c2ccc3cccc4ccc1c2c43	inactive; negative
Nc1ccc(N=Nc2ccc(-c3ccc(N=Nc4c(S(=O)(=O)O)cc5c(c4N)C(=O)/C(=N/Nc4ccccc4)C(S(=O)(=O)O)=C5)cc3)cc2)c(N)c1	inactive; negative
COc1cccc2c1cc([N+](=O)[O-])c1c(C(=O)O)cc3c(c12)OCO3	active; positive

Provide mutagenic call values for the following items, in order.
1. N=C(N)c1ccc(-c2cc3ccc(C(=N)N)cc3s2)cc1
2. COc1c2ccoc2nc2c(OC)cccc12
3. Nc1ccc2[nH]c3ccccc3c2c1
4. COc1c2cc3c(cc2nc2occc12)OCO3
5. C[C@@H]1CC[C@@]2(OC1)O[C@H]1CC3[C@@H]4CC=C5C[C@@H](O[C@@H]6O[C@H](CO)[C@@H](O[C@@H]7O[C@@H](C)[C@H](O)[C@@H](O)[C@H]7O)[C@H](O)[C@H]6O[C@@H]6O[C@@H](C)[C@H](O)[C@@H](O)[C@H]6O)CC[C@]5(C)[C@H]4CC[C@]3(C)[C@H]1[C@@H]2C (stereo partly drawn)
6. [Cd]

Return:
1. inactive; negative
2. active; positive
3. active; positive
4. active; positive
5. inactive; negative
6. inactive; negative

Provide mutagenic call values for the following items, in order.
1. O=C(O)/C(Cl)=C(\CO)C(Cl)Cl
2. CO[C@]1(CC[C@@H](C)CO[C@@H]2O[C@H](CO)[C@@H](O)[C@H](O)[C@H]2O)O[C@H]2C[C@H]3[C@@H]4CC=C5C[C@@H](O[C@@H]6O[C@H](CO)[C@@H](O)[C@H](O[C@@H]7O[C@H](CO)[C@@H](O)[C@H](O)[C@H]7O)C6O[C@@H]6O[C@@H](C)[C@H](O)[C@@H](O)[C@H]6O)CC[C@]5(C)[C@H]4CC[C@]3(C)[C@H]2[C@@H]1C (stereo partly drawn)
3. OC1C=CC=CC1O (stereo not drawn)

Return:
inactive; negative
inactive; negative
inactive; negative

* * *

# System: CCRIS mutagenicity, Ames/micronucleus/aberration tests
# Protocol notes: CCRIS mutagenicity studies
# Condition: Test System: AMES SALMONELLA TYPHIMURIUM; Strain/Indicator: TA1537; Metabolic Activation: RAT, LIVER, S-9, AROCLOR 1254 (10%); Method: PREINCUBATION
The source made the active and inactive calls. No rule for the calls is given here.
Return exactly one item of y (active), n (inactive)

Molecule	Category
CC(=O)C(N=Nc1ccc(-c2ccc(N=NC(C(C)=O)C(=O)Nc3ccccc3)c(Cl)c2)cc1Cl)C(=O)Nc1ccccc1 (stereo not drawn)	n
C=CC(=O)OC	n
c1cnc2c(c1)ccc1cccnc12	n
COc1cc(/C=C/C(=O)CC(=O)/C=C/c2ccc(O)c(OC)c2)ccc1O	n
Nc1ccc(Cc2ccc(N)c(Cc3ccc(N)cc3)c2)cc1	y
COCCOCCOC	n
C=CC(=O)OCCCCCCOC(=O)C=C	n
Cc1ccc(C)c(N)c1	n
O=C1c2c(Br)c(Br)c(Br)c(Br)c2C(=O)N1CCN1C(=O)c2c(Br)c(Br)c(Br)c(Br)c2C1=O	n
CC(O)CNCC(C)O (stereo not drawn)	n

Enquiry: Could you please tell me the result logged for C=CC(=O)OCC(Br)CBr (stereo not drawn) in this assay?
Return: n

Enquiry: Could you please tell me the result logged for CC(=O)c1ccccc1[N+](=O)[O-] in this assay?
Return: n

Enquiry: Could you please tell me the result logged for CCCCC(CC)CO (stereo not drawn) in this assay?
Return: n
